Attribution: patent US4482568A

studySystem: horse liver alcohol dehydrogenase (Equus caballus, UniProt P00327)
Construct: Crystallized horse liver alcohol dehydrogenase; from tissue; host or cells: horse liver
Sequence (P00327 2-375 limits assumed): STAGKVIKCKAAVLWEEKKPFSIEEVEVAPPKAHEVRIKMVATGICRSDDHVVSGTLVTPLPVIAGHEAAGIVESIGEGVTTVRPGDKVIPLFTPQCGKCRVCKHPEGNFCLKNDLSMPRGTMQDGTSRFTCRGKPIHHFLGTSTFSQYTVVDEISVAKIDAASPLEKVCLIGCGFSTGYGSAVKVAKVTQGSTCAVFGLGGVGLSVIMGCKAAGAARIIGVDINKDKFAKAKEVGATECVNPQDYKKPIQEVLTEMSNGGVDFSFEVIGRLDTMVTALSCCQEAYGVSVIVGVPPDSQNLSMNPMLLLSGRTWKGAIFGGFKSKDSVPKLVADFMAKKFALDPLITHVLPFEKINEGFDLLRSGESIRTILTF
testProtocol: Inhibition of horse liver alcohol dehydrogenase in vitro (Kii against varied ethanol)
Type: biochemical
recordedMetric: pKi
Keep in mind that pKi stands for -log10 of concentration in molar terms.

Form field pKi, entry [O-][S+]1CCCC1 [Tetramethylene Sulfoxide, tetramethylene sulfoxide] : 4.72

----------
studySystem: Rat liver alcohol dehydrogenase (Rattus norvegicus)
Construct: Rat liver alcohol dehydrogenase was partially purified; from tissue; host or cells: rat liver
Sequence (P06757 2-376 limits assumed): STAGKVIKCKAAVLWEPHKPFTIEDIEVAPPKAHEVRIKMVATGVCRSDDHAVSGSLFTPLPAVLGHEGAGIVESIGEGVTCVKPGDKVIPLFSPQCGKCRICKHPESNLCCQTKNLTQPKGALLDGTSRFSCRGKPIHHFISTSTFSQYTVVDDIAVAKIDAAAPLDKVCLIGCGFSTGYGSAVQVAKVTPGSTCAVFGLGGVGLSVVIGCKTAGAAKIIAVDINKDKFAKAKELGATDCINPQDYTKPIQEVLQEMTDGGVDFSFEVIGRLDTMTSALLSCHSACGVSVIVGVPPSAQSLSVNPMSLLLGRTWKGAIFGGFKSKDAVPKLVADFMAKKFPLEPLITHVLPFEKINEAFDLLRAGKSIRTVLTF
testProtocol: Inhibition of rat liver alcohol dehydrogenase in vitro (Kii against varied ethanol)
Format: biochemical
recordedMetric: pKi
Keep in mind that pKi stands for -log10 of concentration in molar terms.

Form field pKi, entry [O-][S+]1CCCC1 [Tetramethylene Sulfoxide, tetramethylene sulfoxide] : 3.70

----------
Give measured pKi for each item. Keep answers brief.
studySystem: Liver Alcohol Dehydrogenase (Monkey)
testProtocol: Inhibition of monkey liver alcohol dehydrogenase in vitro (Kii against varied ethanol)
testConditions: purified or partially purified enzyme, pH 7.3, 37° C., ethanol varied as substrate
Keep in mind that pKi stands for -log10 of concentration in molar terms.

Form field pKi, entry [O-][S+]1CCCC1 [Tetramethylene Sulfoxide, tetramethylene sulfoxide] : 2.77

Form field pKi, entry CCCCC1CC[S+]([O-])C1 (stereo not drawn) [3-Butyltetramethylene sulfoxide, 3-butylthiolane-1-oxide] : 5.66

Form field pKi, entry CC1CC[S+]([O-])C1 (stereo not drawn) [3-Methyltetramethylene sulfoxide, 3-Methylthiolane-1-oxide] : 3.35
